- Test system: HL-1
- Assay Protocol: relative cell viability (CellTiter-Glo) vs DMSO control (% of DMSO control); higher = more viable cells
- Condition Context: oxygen condition: normoxia 72 h; 1000 nM
Counter-ions that a name gives are not always drawn.
Rule: relative cell viability below 100 gives satisfied, anything at or above gives not satisfied.

**Query** Here's an entry: CS(=O)(=O)c1ccc(C(=O)Nc2ccc(Cl)c(-c3ccccn3)c2)c(Cl)c1 [Vismodegib] . Is its relative cell viability below 100?
**Result** not satisfied

**Query** Here's an entry: O=C1CCc2cc(OCCCCc3nnnn3C3CCCCC3)ccc2N1 [Cilostazol] . Is its relative cell viability below 100?
**Result** not satisfied

**Query** Here's an entry: C[C@]12C=CC(=O)N[C@@H]1CC[C@@H]1[C@@H]2CC[C@]2(C)[C@@H](C(=O)Nc3cc(C(F)(F)F)ccc3C(F)(F)F)CC[C@@H]12 [Dutasteride] . Is its relative cell viability below 100?
**Result** not satisfied

**Query** Here's an entry: CC1=C(/C=C/C(C)=C/C=C/C(C)=C\C(=O)O)C(C)(C)CCC1 [Isotretinoin] . Is its relative cell viability below 100?
**Result** not satisfied

**Query** Here's an entry: C=CC[N+]1([C@H]2C[C@H]3[C@@H]4CC[C@H]5C[C@H](O)[C@@H](N6CCOCC6)C[C@]5(C)[C@H]4CC[C@]3(C)[C@H]2OC(C)=O)CCCC1 [Rocuronium bromide] . Is its relative cell viability below 100?
**Result** not satisfied

**Query** Here's an entry: C=CCNC(N)=S [Allylthiourea] . Is its relative cell viability below 100?
**Result** not satisfied

**Query** Here's an entry: Cc1c(-c2ccccc2)oc2c(C(=O)OCCN3CCCCC3)cccc2c1=O [Flavoxate HCl] . Is its relative cell viability below 100?
**Result** not satisfied

**Query** Here's an entry: Nc1c2c(nc3ccccc13)CCCC2 [Tacrine HCl] . Is its relative cell viability below 100?
**Result** satisfied

**Query** Here's an entry: O=P(O)(O)C(Cl)(Cl)P(=O)(O)O [Clodronate Disodium] . Is its relative cell viability below 100?
**Result** not satisfied

**Query** Here's an entry: C#C[C@]1(OC(C)=O)CC[C@H]2[C@@H]3CCC4=C[C@@H](OC(C)=O)CC[C@@H]4[C@H]3CC[C@@]21C [Ethynodiol diacetate] . Is its relative cell viability below 100?
**Result** not satisfied

**Query** Here's an entry: CC[C@@H]1C(=O)OC[C@@H]1Cc1cncn1C [Pilocarpine HCl] . Is its relative cell viability below 100?
**Result** not satisfied

**Query** Here's an entry: Nc1nc(Cl)nc2c1ncn2[C@H]1C[C@H](O)[C@@H](CO)O1 [Cladribine] . Is its relative cell viability below 100?
**Result** satisfied

**Query** Here's an entry: CC1CCc2cc(F)cc3c(=O)c(C(=O)O)cn1c23 (centres undefined) [Flumequine] . Is its relative cell viability below 100?
**Result** not satisfied

**Query** Here's an entry: CC1COc2c(N3CCN(C)CC3)c(F)cc3c(=O)c(C(=O)O)cn1c23 (centres undefined) [Ofloxacin] . Is its relative cell viability below 100?
**Result** satisfied

**Query** Here's an entry: O=C1NC(=O)C(c2ccccc2)(c2ccccc2)N1 [Phenytoin] . Is its relative cell viability below 100?
**Result** satisfied

**Query** Here's an entry: CN1C2CCCC1CC(NC(=O)c1nn(C)c3ccccc13)C2 (centres undefined) [Granisetron HCl] . Is its relative cell viability below 100?
**Result** not satisfied

**Query** Here's an entry: Nc1nc2[nH]cc(CCc3ccc(C(=O)N[C@@H](CCC(=O)O)C(=O)O)cc3)c2c(=O)[nH]1 [Pemetrexed] . Is its relative cell viability below 100?
**Result** satisfied

**Query** Here's an entry: CCCS(=O)(=O)Nc1ccc(F)c(C(=O)c2c[nH]c3ncc(-c4ccc(Cl)cc4)cc23)c1F [Vemurafenib] . Is its relative cell viability below 100?
**Result** not satisfied

**Query** Here's an entry: COC(=O)C1=C(C)NC(C)=C(C(=O)OC)C1c1ccccc1[N+](=O)[O-] [Nifedipine] . Is its relative cell viability below 100?
**Result** satisfied

**Query** Here's an entry: O=C[C@H](O)[C@@H](O)[C@H](O)CO [Xylose] . Is its relative cell viability below 100?
**Result** not satisfied

**Query** Here's an entry: CCN1CC(CCN2CCOCC2)C(c2ccccc2)(c2ccccc2)C1=O (centres undefined) [Doxapram HCl] . Is its relative cell viability below 100?
**Result** not satisfied

**Query** Here's an entry: CC1CC(OC(=O)C(O)c2ccccc2)CC(C)(C)C1 (centres undefined) [Cyclandelate] . Is its relative cell viability below 100?
**Result** not satisfied

**Query** Here's an entry: O=C(O)/C=C/c1ccc(Cn2ccnc2)cc1 [Ozagrel HCl] . Is its relative cell viability below 100?
**Result** not satisfied

**Query** Here's an entry: CC(=O)[C@H]1CC[C@H]2[C@@H]3CC=C4C[C@@H](O)CC[C@]4(C)[C@H]3CC[C@]12C [Pregnenolone] . Is its relative cell viability below 100?
**Result** not satisfied

**Query** Here's an entry: O=C1CN2Cc3c(ccc(Cl)c3Cl)N=C2N1 [Anagrelide HCl] . Is its relative cell viability below 100?
**Result** not satisfied
